Where do these numbers come from? They come from patent US20070275984A1.

outcomeMeasure: melting point (°C)

Consider the reported melting point for these compounds:
>>> reading("Cc1nc(NCc2cccc(Cl)c2)c2cc(C)sc2n1")
136.5
>>> reading("Cc1nc(NCCc2ccc(F)cc2)c2cc(C)sc2n1")
117.2
>>> reading("COc1ccc(CCNc2ncnc3sc(C)cc23)cc1")
199
>>> reading("CCc1cc2c(NCCc3ccc(OC)c(OC)c3)nc(C)nc2s1")
78
>>> reading("COc1cccc(CCNc2nc(C)nc3sc(C)cc23)c1")
139

P: CCc1nc(NCCc2cccc(OC)c2)c2cc(C)sc2n1
Q: Cc1nc(NCCc2ccc(O)cc2)c2cc(C)sc2n1
Query string: Given the two records P and Q , choose the one whose melting point value is lower. Indicate which entry you chose by stating its label.
Result string: P
(P: 83.5 °C, Q: 166 °C)

a: CCc1cc2c(NCc3cccc(OC)c3)ncnc2s1
b: Cc1cc2c(NCCc3ccccc3)nc(N(C)C)nc2s1
Query string: Lower value for measured melting point? Options: a , b Pick one and reply with its label.
Result string: a

I: COc1ccc(CCNc2nc(C)nc3sc(C)cc23)cc1OC
II: CCc1cc2c(NC(C)c3ccccc3)ncnc2s1 (stereo not drawn)
Query string: Could you tell me which of I and II has the lower melting point reading? Return value: the label identifying the chosen record.
Result string: I
(I: 85 °C, II: 141 °C)

a: CCc1nc(NCCc2ccc(OC)cc2)c2cc(C)sc2n1
b: CCCc1cc2c(NCCc3ccc(O)cc3)ncnc2s1
Query string: Which is greater in melting point, the first item a or the second item b ? Write down the label of the entry you select.
Result string: b
(b: 123.5 °C, a: 82 °C)

---

outcomeMeasure: melting point (°C)

Below are worked cases with known answers.
>>> reading("COCCCNc1nc(C)nc2sc(C)cc12 [Compound 57]")
90
>>> reading("CCc1cc2c(NCCc3ccc(OC)c(OC)c3)ncnc2s1 [Compound 72]")
124
>>> reading("CC(=O)Nc1ccc(CCNc2nc(C)nc3sc(C)cc23)cc1 [Compound 43]")
248
>>> reading("Cc1nc(NCCc2cccnc2)c2cc(C)sc2n1 [Compound 49]")
138
>>> reading("Cc1nc(NCC(C)c2ccccc2)c2cc(C)sc2n1 (stereo not shown) [Compound 52]")
94

a: Cc1nc(NCc2ccccc2)c2cc(C)sc2n1 [Compound 5]
b: CCCc1cc2c(NCCc3ccc(OCc4nnn[nH]4)cc3)nc(OC)nc2s1 [Compound 88]
c: COc1cccc(CNc2ncnc3sc(C(C)C)cc23)c1 [Compound 91]
Query string: Write the entries in order, lowest recorded melting point first. Order the labels as requested and list them.
Result string: c, a, b

a: Cc1nc(NCCc2ccccc2)c2ccsc2n1 [Compound 1]
b: Cc1nc(NCC(=O)c2ccccc2)c2cc(C)sc2n1 [Compound 12]
Query string: When their melting point values are compared, which is larger, a or b ? Lab note: record the label of whichever item you select.
Result string: b

---

outcomeMeasure: melting point (°C)

>>> reading("CCc1cc2c(NCc3ccccc3)ncnc2s1 [Compound 64]")
133
>>> reading("COc1cc(CCNc2nc(C)nc3sc(C)cc23)ccc1O [Compound 31]")
135
>>> reading("COc1cccc(CNc2nc(C)nc3sc(C)cc23)c1 [Compound 6]")
97
>>> reading("CCCc1cc2c(NCCc3ccccc3)nc(NC)nc2s1 [Compound 81]")
162
>>> reading("CCCc1cc2c(NCCc3ccccc3)ncnc2s1 [Compound 79]")
110.5
>>> reading("Cc1cc2c(NCCc3ccccc3)nc(Cl)nc2s1 [Compound 14]")
119

---

outcomeMeasure: melting point (°C)

Would you please look over these solved cases?
>>> reading("Cc1nc(NCCc2ccccc2)c2cc(C)sc2n1 [Compound 13]")
106
>>> reading("CN(C)C(=O)c1cc2c(NCCc3ccccc3)ncnc2s1 [Compound 62]")
157
>>> reading("CCc1nc(NCCc2ccccc2)c2ccsc2n1 [Compound 2]")
89
>>> reading("COc1ccc(CNc2nc(C)nc3sc(C)cc23)cc1 [Compound 8]")
127.5
>>> reading("CCc1nc(NCCc2ccc(OC)c(OC)c2)c2cc(C)sc2n1 [Compound 34]")
105

I: CCc1cc2c(NCCc3ccccc3)ncnc2s1 [Compound 68]
II: Cc1nc(NCCc2ccc(OCc3nn[nH]n3)cc2)c2cc(C)sc2n1 [Compound 46]
Query string: Given the listed items, does I or II have the lesser reported melting point? When you have decided, please share the label of that item.
Result string: I

A: CCc1cc2c(NCCc3ccc(OC)cc3)nc(C)nc2s1 [Compound 71]
B: CCc1ccc(CCNc2nc(C)nc3sc(C)cc23)cc1 [Compound 20]
Query string: Lab note: check whether A or B has the lower measured melting point. Respond with the label that goes with your answer.
Result string: B
(B: 62 °C, A: 102 °C)

---

outcomeMeasure: melting point (°C)

>>> reading("CCc1cc2c(NCc3ccc(F)cc3)ncnc2s1")
104
>>> reading("CC(C)c1cc2c(NCCc3ccccc3)ncnc2s1")
117.5
>>> reading("COc1cccc(CNc2nc(C)nc3sc(Cc4ccccc4)cc23)c1")
107
>>> reading("Cc1nc(N2CCc3ccccc3C2)c2cc(C)sc2n1")
105

---

outcomeMeasure: melting point (°C)

The examples below pair each entry with its known result.
>>> reading("CCCc1cc2c(NCCc3ccc(O)cc3)nc(Cl)nc2s1")
135
>>> reading("COc1cccc(CCCNc2nc(C)nc3sc(C)cc23)c1")
122
>>> reading("Cc1nc(NCCc2cccc(C(F)(F)F)c2)c2cc(C)sc2n1")
98.2

I: Cc1nc(NCCc2ccc(Cl)cc2)c2cc(C)sc2n1
II: CCc1cc2c(NCCc3cccc(OC)c3)ncnc2s1
Query string: Choose between I and II : whose measured melting point value is numerically larger? Lab note: record the label of whichever item you select.
Result string: I

A: Cc1nc(NCC(O)c2ccccc2)c2cc(C)sc2n1 (stereo not drawn)
B: COc1ccc(CCN(C)c2nc(C)nc3sc(C)cc23)cc1
Query string: Form field 'greater melting point' accepts A or B ; which applies? Write the label of whichever entry you select.
Result string: A
(A: 117 °C, B: 81 °C)

A: CCc1cc2c(NCCCc3ccccc3)ncnc2s1
B: CCCc1cc2c(NCCNc3ccccc3)ncnc2s1
Query string: I'm curious, which of these has a smaller melting point number: A or B ? Kindly state the label of the option you pick.
Result string: B
(B: 68 °C, A: 124.5 °C)

P: CCCc1cc2c(NCCc3ccc(OC)cc3)nc(OC)nc2s1
Q: CCc1cc2c(NCCc3ccc(OC)cc3)ncnc2s1
Query string: Of P and Q , whose reported melting point is the larger number? Response format: the label of the selected entry.
Result string: Q
(Q: 133 °C, P: 92 °C)

---

outcomeMeasure: melting point (°C)

Observe how each entry below is paired with its result.
>>> reading("Cc1ccc(CCNc2nc(C)nc3sc(C)cc23)cc1")
115
>>> reading("Cc1nc(NCCc2cccc(O)c2)c2cc(C)sc2n1")
162.5
>>> reading("CCCc1cc2c(NCCc3ccc(O)cc3)nc(OC)nc2s1")
79
>>> reading("CCCc1cc2c(NCc3cccc(OC)c3)ncnc2s1")
118
>>> reading("Cc1nc(NCCc2ccccn2)c2cc(C)sc2n1")
139

1: CCCCc1cc2c(NCCc3ccccc3)ncnc2s1
2: Cc1nc(NCCOc2ccccc2)c2cc(C)sc2n1
Query string: Record comparison, field melting point: mark the lower of 1 and 2 . Selection: enter the item's label.
Result string: 1

A: COc1ccccc1CCNc1nc(C)nc2sc(C)cc12
B: CCc1cc2c(NCCc3ccccc3)ccnc2s1
Query string: For the pair A and B , which entry has the numerically smaller recorded melting point? Response format: the label of the selected entry.
Result string: B
(B: 88 °C, A: 134 °C)

---

outcomeMeasure: melting point (°C)

>>> reading("COc1ccc(CCNc2nc(C)nc3sc(C)cc23)cc1")
129
>>> reading("COc1nc(NCCc2ccccc2)c2cc(C)sc2n1")
138.5
>>> reading("COc1ccc(CNc2nc(C)nc3sc(C)cc23)cc1OC")
142
>>> reading("COc1ccc(CCCNc2nc(C)nc3sc(C)cc23)cc1")
120
>>> reading("CCCc1cc2c(NCCc3ccc(OC)cc3)ncnc2s1")
102
>>> reading("Cc1nc(NCCc2ccc(N)cc2)c2cc(C)sc2n1")
127
>>> reading("COc1ccc(CCNc2ncnc3sc(C(C)C)cc23)cc1")
108.5
>>> reading("CCc1nc(NCc2cccc(OC)c2)c2cc(C)sc2n1")
108.4
>>> reading("CCCc1cc2c(NCCc3ccc(OC)c(OC)c3)ncnc2s1")
128.5
>>> reading("Cc1nc(NCCCCc2ccccc2)c2cc(C)sc2n1")
108
